- System: Fibroblast
- Assay summary: Multiplex assay against human fibroblast
- Assay type: toxicity, cell-based
- Setup conditions: 12 h, 10 µM, compound concentration 10 uM, replicate 2
Labelling: Population Healthy Nuclei (%) reported below 70% becomes y; at or above becomes n.

# input Quick check: does COc1cc(Nc2nccc(-c3cnn4nc(OC)ccc34)n2)cc(C(F)(F)F)c1 have Population Healthy Nuclei (%) under 70%?
# output y

# input Quick check: does CCc1ccc(OCc2ccccc2C(=O)Nc2ccc3nc(C)cc(N)c3c2)cc1.Cl have Population Healthy Nuclei (%) under 70%?
# output y

# input Quick check: does O=c1[nH]c2ccccc2n1C1CCN(Cc2ccc(-c3[nH]c4cc5ncnc5cc4nc3-c3ccccc3)cc2)CC1 have Population Healthy Nuclei (%) under 70%?
# output y

# input Quick check: does Cc1ccccc1C(c1ccccc1C)N1C2CCC1CC(O)(c1ccccc1)C2 (stereo not drawn) have Population Healthy Nuclei (%) under 70%?
# output n

# input Quick check: does C[C@]12CC[C@@H]3c4ccc(O)cc4CC[C@H]3[C@@H]1CC[C@@H]2O have Population Healthy Nuclei (%) under 70%?
# output n

# input Quick check: does O=C(c1cc2c(cc1F)OC(c1ccc(F)cc1)(c1ccc(Cl)cc1Cl)O2)N1CCOCC1 (stereo not drawn) have Population Healthy Nuclei (%) under 70%?
# output n

# input Quick check: does C=CC(=O)Nc1cccc(Oc2nc(Nc3ccc(N4CCN(C)CC4)cc3OC)ncc2Cl)c1 have Population Healthy Nuclei (%) under 70%?
# output y

# input Quick check: does CCCSc1nc(N[C@@H]2C[C@H]2c2ccc(F)c(F)c2)c2nnn([C@@H]3C[C@H](OCCO)[C@@H](O)[C@H]3O)c2n1 have Population Healthy Nuclei (%) under 70%?
# output n

# input Quick check: does CC(C)CC(=O)Nc1[nH]nc2c1CN(C(=O)C1CCN(C)CC1)C2(C)C have Population Healthy Nuclei (%) under 70%?
# output y

# input Quick check: does CC(C)OC(=O)N1CCC(Oc2ncnc3c2cnn3-c2ccc(S(C)(=O)=O)cc2F)CC1 have Population Healthy Nuclei (%) under 70%?
# output n

# input Quick check: does Cl.O=C(O)c1cc(-c2ccc(C3CCNCC3)cc2)c2ccc(-c3ccc(C(F)(F)F)cc3)cc2c1 have Population Healthy Nuclei (%) under 70%?
# output y

# input Quick check: does COc1ccccc1CN[C@H]1C2CCN(CC2)[C@H]1C(c1ccccc1)c1ccccc1 have Population Healthy Nuclei (%) under 70%?
# output n

# input Quick check: does O=c1cc(N2CCOCC2)oc2c(-c3cccc4c3sc3ccccc34)cccc12 have Population Healthy Nuclei (%) under 70%?
# output y

# input Quick check: does CC(C)(C)NC[C@H](O)COc1nsnc1N1CCOCC1 have Population Healthy Nuclei (%) under 70%?
# output n

---

Assignment: determine reported Population Healthy Nuclei (%) for the given molecules.
- System: U2OS
- Assay summary: Multiplex assay against U2OS
- Type: toxicity, cell-based
- Setup conditions: human, 24 h, 10 µM, compound concentration 10 uM, replicate 2
Report the value in % with no unit label.

Entry CCc1ccc(OCc2ccccc2C(=O)Nc2ccc3nc(C)cc(N)c3c2)cc1.Cl ; Population Healthy Nuclei (%) = 38

Entry Cc1nc(N2CC[C@H](O)C2)ncc1-c1cc(C(F)(F)F)cc2[nH]ncc12 ; Population Healthy Nuclei (%) = 81

Entry C=CC(=O)Nc1ccc2[nH]c(=O)n(C3CCN(Cc4ccc(-c5nc6cc[nH]c(=O)c6cc5-c5ccccc5)cc4)CC3)c2c1 [Borussertib] ; Population Healthy Nuclei (%) = 76

Entry Cc1c[nH]c2nccc(Oc3c(F)cc(Nc4cc(Cl)nc(N)n4)cc3F)c12 [BAY-549] ; Population Healthy Nuclei (%) = 62

Entry Cc1ccc(C)c(Oc2ccncc2C(=O)N2CCN(C3CC3)c3ccccc32)c1 ; Population Healthy Nuclei (%) = 66

Entry CC1=C(C(=O)Nc2cc3cn[nH]c3cc2F)C(c2ccc(C(F)(F)F)cc2)CC(=O)N1 (centres undefined) ; Population Healthy Nuclei (%) = 68

Entry Cc1ccc2c(c1)c1c(n2CCc2ccc(C)nc2)CCN(C)C1 [LATREPIRDINE] ; Population Healthy Nuclei (%) = 56

Entry Cc1ccccc1C(c1ccccc1C)N1C2CCC1CC(O)(c1ccccc1)C2 (centres undefined) ; Population Healthy Nuclei (%) = 65

Entry CNC(=O)Nc1ccc2c(c1)[C@@]1(CC2)OC(=O)N(CC(=O)N(Cc2ccc(F)cc2)[C@@H](C)C(F)(F)F)C1=O [A-486] ; Population Healthy Nuclei (%) = 90
